Molecular target: ETS1 (UniProt P14921)
Sequence: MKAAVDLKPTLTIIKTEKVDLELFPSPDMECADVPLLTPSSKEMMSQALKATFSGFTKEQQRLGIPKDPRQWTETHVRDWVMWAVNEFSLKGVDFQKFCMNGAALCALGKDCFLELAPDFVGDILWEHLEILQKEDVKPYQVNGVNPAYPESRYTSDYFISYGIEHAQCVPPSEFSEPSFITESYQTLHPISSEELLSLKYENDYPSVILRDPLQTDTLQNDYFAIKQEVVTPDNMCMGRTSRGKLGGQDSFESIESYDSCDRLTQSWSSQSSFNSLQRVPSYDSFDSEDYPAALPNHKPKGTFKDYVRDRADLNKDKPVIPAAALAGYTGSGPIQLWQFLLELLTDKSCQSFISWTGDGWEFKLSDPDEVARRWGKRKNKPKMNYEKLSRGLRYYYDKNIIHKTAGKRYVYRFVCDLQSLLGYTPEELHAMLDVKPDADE
Test: ETS1 binding intensity (PBM fluorescence) in presence of RUNX1, normalised to ETS1-only experiment (arbitrary fluorescence units); higher = stronger binding
Conditions: ETS1 concentration 1 nM; RUNX1 concentration 25 nM
test_readout: ETS1 binding intensity

1. CTGGTTTCATTTCCGGGTGCGGCTTCTGTCATAAAG | 2350
2. GCAGAGTTTACAACAGGATGTGGTTATTGGCGCTGC | 46800
3. TCGCTTCCTGCTCCACTTCTCGGCGCCCACATCTCC | 523
4. TGTAAGTCACTTCCTGTCGTGGTCAGGTCTCCTCTC | 7730
5. CGGGCCCGACGGAAACCATGTTTGTGGCTCGCAGCA | 699
6. CGTGTGGGAGGCCGGAAGTTGCGGCTTCATTACTCG | 51000
7. CTTTGCAGGAAGCTGGGGTTCACCCACAGCCTTGTT | 857
8. CAGGCCTGTGATTTCCTCTGAGTGGTTTTCTTGGCC | 401
9. CCTCCCACCTTGGCAGGAAGCGGTTTATCAGATTAA | 7770
10. AAATCACGTACCCGGAAACCACATGCACAGAAGTGG | 2930
11. GGGCAGGCCGGATGTGGGAGACCACAAAGCCCAAGG | 27500
12. CCGTACTTCCGCTTTACTCAGATTTTGGACCGCGGG | 1780

---

Target: ETS1 (UniProt P14921)
Sequence: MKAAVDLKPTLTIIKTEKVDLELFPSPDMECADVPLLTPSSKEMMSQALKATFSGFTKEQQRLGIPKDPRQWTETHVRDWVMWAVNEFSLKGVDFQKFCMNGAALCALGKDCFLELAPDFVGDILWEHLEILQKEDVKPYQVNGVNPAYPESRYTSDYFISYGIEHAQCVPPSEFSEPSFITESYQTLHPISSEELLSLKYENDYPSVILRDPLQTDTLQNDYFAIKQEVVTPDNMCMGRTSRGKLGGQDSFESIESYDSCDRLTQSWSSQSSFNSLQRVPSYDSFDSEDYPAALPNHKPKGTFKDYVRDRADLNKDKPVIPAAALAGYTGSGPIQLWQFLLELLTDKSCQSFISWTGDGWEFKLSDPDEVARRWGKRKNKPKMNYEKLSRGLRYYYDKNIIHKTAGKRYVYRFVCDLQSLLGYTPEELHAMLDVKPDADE
Test: ETS1 binding intensity (PBM fluorescence) in presence of RUNX1, normalised to ETS1-only experiment (arbitrary fluorescence units); higher = stronger binding
Conditions: ETS1 concentration 1 nM; RUNX1 concentration 25 nM
So basically: ETS1 binding intensity at 2000 or higher? That is satisfied. Lower than 2000? That is not satisfied.

1. TGCAAGAGGAAGCTGGGGTTTGTGGTTCATGTTTTG | not satisfied
2. AACACCTCACACTTCCTGCCCACAAGATAAGAGCCT | not satisfied
3. GGGCTATTGTTTCCTCCCCCATGTGACCACAGCCTC | not satisfied
4. GGTTTCACTTCCTGCGTTGGGCCTTGTGGCCTCCTT | not satisfied
5. GGCGGGACTTCCGGCGTCTCCCCTCGGCGGTTGCTT | satisfied
6. CAGAGGACAGGATGCCAACCCCAAAACCGCAGCGAC | satisfied
7. CCACGTAAAGGCGGAAGCGGTTGAGTGGACGCCATC | satisfied
8. GTTTACAGGGGACAGGAAATGTGGGTGAACTCAGCC | satisfied
9. CAGCTCCGACTTCCGGGTGCGGTACGGCGAAGCAGA | not satisfied
10. GATGCTCTAACAGGAAGTGGGTTAAGGAGCTGCACT | satisfied
11. ACCCGGATGTCGTTGGGCAGGAACTGCGGTGAGGGC | satisfied
12. TCCTCCGTTTCCGTAGTTCCGAGTTGCGGTTTCTCC | satisfied
13. ATCAAAGAACGGATATTGCTGTGACACCGCGGGGAC | not satisfied
14. ACGGACAGAATTTCCTCCCCCGTCACCACAGCGACC | not satisfied
15. GACGCTCTCTTCCTGTCTTTGTGGCTCCAGAAAGGC | not satisfied
16. AGAGTCTTTTTTCCTGAGCGTTTGCGGTTTTGACTT | not satisfied
17. GGCTTCCGCCGCCACCACTGCCCCTCAACCGCCACG | not satisfied
18. TCCCCACACTTCCGGCCCCGCCCGCACAGCCGCACC | satisfied
19. ACAGGAAATGACTTAGGGAAAGTCCCAACCGCAATC | satisfied
20. GCTAAAGGAAGCTCTGTACAGCTGTGGTAAGGTGGC | not satisfied
21. CTGCTTCGGCCCGGCTTCCGCCCACAGTCAACTGCC | not satisfied
22. ACAGAGAAGCTTCCTATTGTGGGATTCACCACCACC | not satisfied
23. TTTTGCCCAACAGGATGTGGTTTCTAAAGCAGACGG | satisfied
24. TGGGACGAGTGGGCGGAAACAGCCGCAGGTCTCTCT | satisfied
25. GGGGCAGGAAACAGCGTCCTGCGCGGGTAGCCCCTG | not satisfied

---

Biological target: ETS1 (UniProt P14921)
Sequence: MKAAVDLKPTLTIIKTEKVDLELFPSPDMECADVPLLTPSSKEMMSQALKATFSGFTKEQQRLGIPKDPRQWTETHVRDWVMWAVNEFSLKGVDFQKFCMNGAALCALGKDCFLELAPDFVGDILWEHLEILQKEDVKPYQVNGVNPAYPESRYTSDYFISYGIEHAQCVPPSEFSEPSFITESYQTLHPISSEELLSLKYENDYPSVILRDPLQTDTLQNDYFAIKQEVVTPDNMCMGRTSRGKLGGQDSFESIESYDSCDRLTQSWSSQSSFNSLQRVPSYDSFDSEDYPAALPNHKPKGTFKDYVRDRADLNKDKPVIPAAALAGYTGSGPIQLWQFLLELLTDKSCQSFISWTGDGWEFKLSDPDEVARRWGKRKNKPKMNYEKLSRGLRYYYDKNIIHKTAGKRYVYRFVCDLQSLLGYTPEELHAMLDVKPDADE
Assay: ETS1 binding intensity (PBM fluorescence), ETS1 alone (arbitrary fluorescence units); higher = stronger binding
Settings: ETS1 concentration 1 nM; RUNX1 concentration 0 nM
test_readout: ETS1 binding intensity

1) ACCACCCACTTCCCGCGCAGTTCCAAACCGCGACCA | 302
2) CCAGCCTCCCCTTTCCTGTCTGTGGCAGGAGCGTGC | 505
3) CTTACAGATAAGGAAACTGAGGTTAAAATGTAGGGG | 681
4) GAGGGGAGGATGTCTGAGCTTTTAATTGTGGTTTCA | 370
5) TGAGAAAACAGGAAGCGCCCAGTCACCACAGAAAGC | 2910
6) AACTTAGCTTCCGGGAAGAAGGCGAGCGGTGGGAGG | 780
7) GGTCACATCCTTTCCCTTCTGTGTCTCAGCCGCAGT | 421
8) GACCAGGAAACGGGGCGTGGCGGCCGCCGTGGTTAC | 449
9) GCTTAGGCTCTTTCCTGTGTGGTGAGCACTAACCTC | 488
10) ACATTTCCTTTTGGTATTTAAAGTAACCACACAGAA | 495
11) CCATTTCCGCGCACGTCTGCAGATGCGGTAGTCGAT | 413
12) GGGTGCAGACGGGAAGTTGCGGCTGCCAGCGAAGCT | 1680
13) CACCCGAACGGAAACACCTGCGGCTGAGGGGAGGGG | 959
14) CACCCATAGCACCCCGGAAACCACCTCCACCACCTG | 1890
15) GTGGATTTCACATCCTGTCCTAGCGGTATGTTTGTC | 1470
16) CTTTAAGGAGGCGGAAAAGTTAACCGCGATGGGCAG | 533
17) AGCACAAACCCAGGATGTGGTAAATGAAATGAAAAA | 1260
18) AGAAGGAACTACACAGGAAACCCACTGCCTCGATGG | 2430
19) GCGCGGCTCAGGAAGCGACGCGGTTCAGGGAGCGAA | 707
20) CTGAAACAGGAAACAGACAAAGCCACAAGGTTCGCA | 1840
21) ACTGCTTGATTTTCAGGAAGTGGTAAAGTGGCAGGT | 3700
22) AGCCCGCCGGAAACTAGCGTCACCGCGCCAAGGTTC | 1440
23) CAAGGTTCCTCCGCTTCCTGCCCGCAGGCCGAACCT | 956
24) CAGCGGAAGAAAGACCTGCCACCTCCACCACAAAGA | 440
25) CCCGGGGGCAGGAAATGTCGCCTTACCCACAGCCTT | 2470
